Field: kinase still bound, per cent of control. Provide a value for each of the molecules that follow.
Tested on: PIK3CA (human), P42336 [M1043I]
Sequence (P42336 whole entry M1043I, looked up): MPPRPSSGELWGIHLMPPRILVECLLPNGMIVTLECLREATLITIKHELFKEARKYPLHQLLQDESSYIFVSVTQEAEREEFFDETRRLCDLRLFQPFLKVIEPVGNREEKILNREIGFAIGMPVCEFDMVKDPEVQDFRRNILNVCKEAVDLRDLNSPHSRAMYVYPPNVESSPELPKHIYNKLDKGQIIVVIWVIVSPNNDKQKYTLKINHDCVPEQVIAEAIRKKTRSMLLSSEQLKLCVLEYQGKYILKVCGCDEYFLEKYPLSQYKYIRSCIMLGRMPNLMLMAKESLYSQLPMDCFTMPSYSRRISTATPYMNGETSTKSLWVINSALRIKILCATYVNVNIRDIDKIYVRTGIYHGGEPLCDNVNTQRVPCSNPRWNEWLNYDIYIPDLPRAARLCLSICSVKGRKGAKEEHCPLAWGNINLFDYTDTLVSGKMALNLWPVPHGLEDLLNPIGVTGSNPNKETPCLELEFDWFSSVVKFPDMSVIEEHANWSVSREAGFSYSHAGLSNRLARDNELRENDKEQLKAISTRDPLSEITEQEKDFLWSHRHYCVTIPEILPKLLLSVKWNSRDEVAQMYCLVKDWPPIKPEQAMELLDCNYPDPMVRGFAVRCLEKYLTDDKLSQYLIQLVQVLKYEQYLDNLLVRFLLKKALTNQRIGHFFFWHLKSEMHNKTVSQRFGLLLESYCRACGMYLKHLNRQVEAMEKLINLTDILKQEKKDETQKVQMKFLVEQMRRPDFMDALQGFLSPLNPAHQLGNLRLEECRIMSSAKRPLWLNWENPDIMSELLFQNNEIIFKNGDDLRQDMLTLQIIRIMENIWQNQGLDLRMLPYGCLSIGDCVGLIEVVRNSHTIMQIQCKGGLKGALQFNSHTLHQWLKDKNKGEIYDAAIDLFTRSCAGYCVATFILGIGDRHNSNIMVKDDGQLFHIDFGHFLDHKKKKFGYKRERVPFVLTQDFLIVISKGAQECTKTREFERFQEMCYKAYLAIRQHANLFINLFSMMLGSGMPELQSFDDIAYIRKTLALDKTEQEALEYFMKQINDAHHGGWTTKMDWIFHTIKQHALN
ASSAY TEXT: KINOMEscan competition binding
TEST CONDITIONS: compound 10.0 µM
Kindly format the answer as number then unit.

COc1cc2c(Nc3ccc(NC(=O)c4ccccc4)cc3)ncnc2cc1OCCCN1CCOCC1 : 99%
Cc1ccc2nc(NCCN)c3ncc(C)n3c2c1 : 100%
CN(C)C/C=C/C(=O)Nc1cccc(Nc2ncc3c(n2)N(C)c2ccccc2C(=O)N3C)c1 : 39%
C[C@@H](Oc1cc(-n2cnc3ccc(CN4CCN(C)CC4)cc32)sc1C(N)=O)c1ccccc1C(F)(F)F : 63%

Look up kinase still bound, per cent of control for the entries below, preserving their order.
1. O=C(Nc1cccc(Nc2ncc(Br)c(NCCc3cnc[nH]3)n2)c1)N1CCCC1
2. COc1cc(N2CCN(C)CC2)ccc1Nc1nc(N)c(C(=O)c2c(Cl)cccc2Cl)s1
3. N#C/C(=C1/Nc2ccccc2S1)c1ccnc(NCCc2cccnc2)n1
4. C=CC(=O)Nc1cc(NC(=O)c2ccc(C)c(NC(=O)c3ccno3)c2)cc(C(F)(F)F)c1

[out]
1: 95%; 2: 100%; 3: 84%; 4: 93%

* * *

TARGET SYSTEM: TNK2 (human) (UniProt Q07912)
Sequence (Q07912 whole entry, looked up): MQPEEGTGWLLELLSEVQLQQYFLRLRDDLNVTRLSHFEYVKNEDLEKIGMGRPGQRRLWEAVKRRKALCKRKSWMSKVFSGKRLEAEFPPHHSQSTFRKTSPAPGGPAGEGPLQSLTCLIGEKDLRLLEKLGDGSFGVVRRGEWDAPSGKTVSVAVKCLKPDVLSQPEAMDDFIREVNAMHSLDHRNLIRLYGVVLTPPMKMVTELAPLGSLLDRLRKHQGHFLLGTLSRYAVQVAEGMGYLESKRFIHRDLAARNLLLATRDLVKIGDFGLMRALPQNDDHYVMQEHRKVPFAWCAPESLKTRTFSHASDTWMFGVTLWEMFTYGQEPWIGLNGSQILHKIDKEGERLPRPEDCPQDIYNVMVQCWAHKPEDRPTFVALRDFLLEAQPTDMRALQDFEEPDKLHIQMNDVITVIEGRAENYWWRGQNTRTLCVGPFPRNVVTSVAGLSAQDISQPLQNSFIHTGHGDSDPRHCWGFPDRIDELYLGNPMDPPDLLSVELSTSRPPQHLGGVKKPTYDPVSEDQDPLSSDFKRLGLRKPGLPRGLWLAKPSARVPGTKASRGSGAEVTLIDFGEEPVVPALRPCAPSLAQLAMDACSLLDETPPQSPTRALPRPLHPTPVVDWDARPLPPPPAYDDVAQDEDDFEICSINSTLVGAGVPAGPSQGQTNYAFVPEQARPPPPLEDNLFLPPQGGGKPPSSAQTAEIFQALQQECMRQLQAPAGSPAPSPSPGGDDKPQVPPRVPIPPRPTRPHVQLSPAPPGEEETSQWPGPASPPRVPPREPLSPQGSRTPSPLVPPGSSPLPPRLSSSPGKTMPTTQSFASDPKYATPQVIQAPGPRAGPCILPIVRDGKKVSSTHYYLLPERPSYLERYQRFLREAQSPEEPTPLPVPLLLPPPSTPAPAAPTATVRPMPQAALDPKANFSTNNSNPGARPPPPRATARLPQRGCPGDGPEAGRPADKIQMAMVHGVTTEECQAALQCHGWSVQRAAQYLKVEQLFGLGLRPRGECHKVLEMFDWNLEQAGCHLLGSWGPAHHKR
ASSAY TEXT: KINOMEscan competition binding
TEST CONDITIONS: compound 10.0 µM
ASSAY ENDPOINT: kinase still bound, per cent of control

Example entries and their recorded answers appear below.
O=c1[nH]c2ccccc2n1C1CCN(Cc2ccc(-c3nc4cc5[nH]cnc5cc4nc3-c3ccccc3)cc2)CC1 : 100%
COc1cc(C)c(Sc2cnc(NC(=O)c3ccc(CNC(C)C(C)C)cc3)s2)cc1C(=O)N1CCN(C(C)=O)CC1 (configuration not stated) : 100%

Look up kinase still bound, per cent of control for the entries below, preserving their order.
1. N#C/C(=C1/Nc2ccccc2S1)c1ccnc(NCCc2cccnc2)n1
2. COc1cc(N2CCC(C(N)=O)CC2)ccc1Nc1nc(N)c(Cl)c(Nc2ccccc2S(=O)(=O)C(C)C)n1
3. C=CC(=O)Nc1ccc(C(=O)c2sc(Nc3ccc(N4CCN(C)CC4)cc3OC)nc2N)cc1
4. CCOc1cc(N2CCC(O)CC2)ccc1Nc1ncc2c(n1)N(C)c1ccccc1C(=O)N2C
5. Cc1cn(-c2cc(C(=O)Nc3ccc(C)c(NC(=O)c4ccno4)c3)cc(C(F)(F)F)c2)cn1
6. CCc1nc(-c2cccc(C)c2)c(-c2ccnc(NC(=O)c3ccccc3)c2)s1
7. CCN(CCO)CCCOc1ccc2c(Nc3cc(CC(=O)Nc4cccc(F)c4)[nH]n3)ncnc2c1

[out]
91%
0.2%
82%
17%
100%
78%
100%

* * *

TARGET SYSTEM: NTRK1 (human)
ASSAY TEXT: KINOMEscan competition binding
TEST CONDITIONS: compound 10.0 µM
ASSAY ENDPOINT: kinase still bound, per cent of control (%)
Numbers only, in %.

Example entries and their recorded answers appear below.
Cc1cn(-c2cc(C(=O)Nc3ccc(C)c(NC(=O)c4ccno4)c3)cc(C(F)(F)F)c2)cn1 : 100
CCN1CCN(Cc2ccc(NC(=O)c3ccc(C)c(/C=C/c4cnc5[nH]ccc5c4OC)c3)cc2C(F)(F)F)CC1 : 2.5
C=CC(=O)Nc1ccc(C(=O)c2sc(Nc3ccc(N4CCN(C)CC4)cc3OC)nc2N)cc1 : 78
COc1cc2c(Nc3ccc(NC(=O)c4ccccc4)cc3)ncnc2cc1OCCCN1CCOCC1 : 16
N#Cc1cc(-c2ccnc(Nc3ccc(-n4cnc(-c5cccnc5)n4)cc3)n2)cc(N2CCOCC2)c1 : 53

Okay, now this molecule:
[in] # returns recorded kinase still bound, per cent of control (system: NTRK1 (human)) for "COc1cc2ncnc(Nc3cccc(Cl)c3)c2cc1OC"
[out] 88
